# ASSAY_SYSTEM: SARS-CoV-1 RBD (SARS-CoV)
# EXPERIMENT: sVNT, cPass kit format with SARS-CoV-1 RBD-HRP; HEK293 supernatant
METRIC_NAME: sVNT SARS-CoV-1 (% I) (%)

>>> readout_value("Antibody 10 (SS6V10-E1) (antibody, V domains shown) VH: EVQLVQSGAEVKKPGESLKISCQGSEDSFTGYWIGWVRQLPGKGLEWMGFIYPDDGDTRYSPAFQGLVTFSADKSITTAYLQWSSLKASDTAIYFCARHLGGGSSWPIDSWGQGTQVTVSS VL: DIQMTQSPSSLSASVGDRVTITCRASQGIRNYLAWFQQKPGKAPKSLIYAASSLQSGVPSKFSGSGYGTDFTLTINSLQPEDFATYYCQQYNNHPFTFGGGTKVEIK")
15.4
>>> readout_value("Antibody 12 (SS6V12-E11) (antibody, V domains shown) VH: EVQLVESGGGLVKPGGSLRLSCAASGFTFSTYNMNWVRQAPGKGLEWVSSISSSSSFMFYADSVKGRFTISRDNANNSLYLQMNSLRAEDTAVYYCARDYYDNSGYYYYGMDVWGQGTTVTVSS VL: DIQMTQSPSSLSASVGDRVTITCRASQSIRTYLSWYQQKPGKAPELLIYAASNLQSGVPSRFSGSGSGTDFTLTISSLQPEDFATYYCLQTYSTPQITFGQGTRLEIE")
50.4
>>> readout_value("Antibody 6 (SS6V6-C4) (antibody, V domains shown) VH: EVQLVESGGGLVQPGGSLRLSCSASGFTFNTYAMHWVRQAPGKGPEYVSGISSNGGITDYADSVKGRFTISRDNSKNTLYLQMSSLRPEDTAVYYCVKDSLATVVTLLSYWGQGTLVTVSS VL: DIQMTQSPSSLSASVGDRVTITCRASQTISSYLNWFQQKPGKAPKLLIYAASSLQSGVPSRFSGSGSGTDFTLTISSLQPEDFAIYYCQQSYSTPGTFGQGTKVEIK")
30.5
